molecular target: hH3R (Homo sapiens, UniProt Q9Y5N1)
Sequence (Q9Y5N1 whole entry): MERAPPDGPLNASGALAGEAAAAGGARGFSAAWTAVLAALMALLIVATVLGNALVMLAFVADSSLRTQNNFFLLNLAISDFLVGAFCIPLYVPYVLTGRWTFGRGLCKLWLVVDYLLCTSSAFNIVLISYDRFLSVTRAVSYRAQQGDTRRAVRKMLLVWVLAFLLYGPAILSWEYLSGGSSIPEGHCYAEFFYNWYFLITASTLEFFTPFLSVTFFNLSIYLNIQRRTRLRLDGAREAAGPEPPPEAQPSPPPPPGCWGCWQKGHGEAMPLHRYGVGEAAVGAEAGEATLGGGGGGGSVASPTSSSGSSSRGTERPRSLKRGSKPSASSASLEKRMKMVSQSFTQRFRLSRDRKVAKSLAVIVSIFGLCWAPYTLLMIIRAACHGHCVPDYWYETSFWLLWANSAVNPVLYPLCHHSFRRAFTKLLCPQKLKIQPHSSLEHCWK
endpoint: pKi
Quick note: pKi values are minus log10 of concentrations in mol/L.

Lookup: pKi lookup needed for Clc1cccc(-c2cn(CCOCCN3CCNCC3)nn2)c1 [Compound 7] , thanks.
Found: 3.33
